Source of measurements: patent US20230263822A1

Assay: Viscosity of ISIS antisense oligonucleotides, micro-viscometer at 25 °C (Example 47)
Assay type: physicochemical
Conditions: concentration of the viscosity sample, UV reading at 260 nM at 85° C.
Strand notation (5' to 3'): a small letter for the sugar, then the base; units joined by * are phosphorothioate-linked, units joined directly phosphodiester-linked; [ ] holds rarer units or linkages, { } end groups; capitals alone tell only the bases. e = 2'-O-(2-methoxyethyl) (MOE); [5mC] = 5-methylcytosine; d = 2'-deoxy (DNA)
value.kind: Concentration (mg/mL)
Give bare numbers, in mg/mL.

Study these solved cases before continuing.
416866 (antisense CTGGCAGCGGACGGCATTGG; 5-10-5 gapmer, further chemistry not given here) [compound 416866] = 166
449708 (antisense eA*e[5mC]*eA*dG*dT*dT*dT*d[5mC]*dT*dG*dG*e[5mC]*eA*eG) [compound 449708] = 188
445513 (antisense eG*e[5mC]*eA*eG*e[5mC]*eG*dG*dA*d[5mC]*dG*dG*d[5mC]*dA*dT*eT*eG*eG*eT*eG*e[5mC]) [compound 445513] = 167
445505 (antisense e[5mC]*eG*eG*e[5mC]*eA*eT*dT*dG*dG*dT*dG*d[5mC]*dA*d[5mC]*eA*eG*eT*eT*eT*e[5mC]) [compound 445505] = 155
445504 (antisense eG*eG*e[5mC]*eA*eT*eT*dG*dG*dT*dG*d[5mC]*dA*d[5mC]*dA*eG*eT*eT*eT*e[5mC]*eT) [compound 445504] = 139
413481 (antisense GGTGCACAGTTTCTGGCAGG; 5-10-5 MOE gapmer, further chemistry not given here) [compound 413481] = 144
416863 (antisense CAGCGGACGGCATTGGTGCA; 5-10-5 gapmer, further chemistry not given here) [compound 416863] = 165
412224 (antisense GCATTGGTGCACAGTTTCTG; 5-10-5 MOE gapmer, further chemistry not given here) [compound 412224] = 186
416856 (antisense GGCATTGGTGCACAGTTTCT; 5-10-5 gapmer, further chemistry not given here) [compound 416856] = 175
445530 (antisense eG*e[5mC]*eA*eT*eT*dG*dG*dT*dG*d[5mC]*dA*d[5mC]*dA*eG*eT*eT*eT*e[5mC]) [compound 445530] = 177

Look up Concentration for the entries below, preserving their order.
1. 416867 (antisense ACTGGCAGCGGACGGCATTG; 5-10-5 gapmer, further chemistry not given here) [compound 416867]
2. 449711 (antisense eA*e[5mC]*dA*dG*dT*dT*dT*d[5mC]*dT*dG*dG*d[5mC]*eA*eG) [compound 449711]

1: 168; 2: 209

###

Would you kindly list PT ratio (INR) for each of these substances?
Test system: blood coagulation
Assay: PT and aPTT assay in cynomolgus monkeys (Example 45)
Format: in vivo
Conditions: day 71; escalating dose regimen; platelet poor plasma
Give bare numbers.

Look up PT ratio (INR) for the entries below, preserving their order.
1. ISIS 416838: MOE gapmer, nucleobases 1018 to 1042 of SEQ ID NO: 1 (Table 6) (antisense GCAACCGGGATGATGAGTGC; MOE gapmer, wing and gap sizes not given here)
2. ISIS 416858: MOE gapmer, nucleobases 1275 to 1318 of SEQ ID NO: 1 (Table 8) (antisense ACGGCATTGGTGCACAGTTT; MOE gapmer, wing and gap sizes not given here)
3. ISIS 416864: MOE gapmer, nucleobases 1275 to 1318 of SEQ ID NO: 1 (Table 8) (antisense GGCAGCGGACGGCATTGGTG; MOE gapmer, wing and gap sizes not given here)
4. ISIS 417002: MOE gapmer, nucleobases 1275 to 1318 of SEQ ID NO: 1 (Table 8) (antisense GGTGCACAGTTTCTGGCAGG; MOE gapmer, wing and gap sizes not given here)

1.02
1.07
1.07
0.99

Recall the reported PT ratio (INR) of ISIS 416850: MOE gapmer, nucleobases 1275 to 1318 of SEQ ID NO: 1 (Table 8) (antisense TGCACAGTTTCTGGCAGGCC; MOE gapmer, wing and gap sizes not given here) when tested on blood coagulation.
1.03
